- Assay details: Urinary excretion study in rats after oral NS, SF or CNS (LC–MS/MS)
- Type: in vivo
- Condition label: rat urine, oral NS 60 mg/kg, 8 h
Property name: Excretion amount (µg)
Entry rule: numbers only, all in µg.

Known Excretion amount results, listed for orientation:
- Molecule: "CC(C)=CCC[C@](C)(O[C@@H]1O[C@H](CO[C@@H]2O[C@H](CO)[C@@H](O)[C@H](O)[C@H]2O)[C@@H](O)[C@H](O)[C@H]1O)[C@H]1CC[C@]2(C)[C@@H]1[C@H](O)C[C@@H]1[C@@]3(C)CC[C@H](O[C@@H]4O[C@H](CO)[C@@H](O)[C@H](O)[C@H]4O[C@@H]4O[C@H](CO)[C@@H](O)[C@H](O)[C@H]4O)C(C)(C)[C@@H]3CC[C@]12C [ginsenoside Rb1]"
  Excretion amount, µg: 0.152
- Molecule: "CC(C)=CCC[C@](C)(O[C@@H]1O[C@H](CO)[C@@H](O)[C@H](O)[C@H]1O)[C@H]1CC[C@]2(C)[C@@H]1[C@H](O)C[C@@H]1[C@@]3(C)CC[C@H](O)C(C)(C)[C@@H]3[C@@H](O[C@@H]3O[C@H](CO)[C@@H](O)[C@H](O)[C@H]3O[C@@H]3O[C@@H](C)[C@H](O)[C@@H](O)[C@H]3O)C[C@]12C [ginsenoside Re]"
  Excretion amount, µg: 0.173
- Molecule: "CC(C)=CCC[C@](C)(O[C@@H]1O[C@H](CO)[C@@H](O)[C@H](O)[C@H]1O)[C@H]1CC[C@]2(C)[C@@H]1[C@H](O)C[C@@H]1[C@@]3(C)CC[C@H](O[C@@H]4O[C@H](CO)[C@@H](O)[C@H](O)[C@H]4O[C@@H]4O[C@H](CO)[C@@H](O)[C@H](O)[C@H]4O)C(C)(C)[C@@H]3CC[C@]12C [ginsenoside Rd]"
  Excretion amount, µg: 0.082

We next turn to a different molecule, shown below.
[in] Which value of Excretion amount has been reported for CC(C)=CCC[C@](C)(O[C@@H]1O[C@H](CO)[C@@H](O)[C@H](O)[C@H]1O)[C@H]1CC[C@]2(C)[C@@H]1[C@H](O)C[C@@H]1[C@@]3(C)CC[C@H](O)C(C)(C)[C@@H]3[C@@H](O[C@@H]3O[C@H](CO)[C@@H](O)[C@H](O)[C@H]3O)C[C@]12C [ginsenoside Rg1] in the records?
[out] 3.890

Origin of values: paper PMC6321168
